# TARGET_UNDER_TEST: Gcr1 (UniProt P07261)
# Sequence: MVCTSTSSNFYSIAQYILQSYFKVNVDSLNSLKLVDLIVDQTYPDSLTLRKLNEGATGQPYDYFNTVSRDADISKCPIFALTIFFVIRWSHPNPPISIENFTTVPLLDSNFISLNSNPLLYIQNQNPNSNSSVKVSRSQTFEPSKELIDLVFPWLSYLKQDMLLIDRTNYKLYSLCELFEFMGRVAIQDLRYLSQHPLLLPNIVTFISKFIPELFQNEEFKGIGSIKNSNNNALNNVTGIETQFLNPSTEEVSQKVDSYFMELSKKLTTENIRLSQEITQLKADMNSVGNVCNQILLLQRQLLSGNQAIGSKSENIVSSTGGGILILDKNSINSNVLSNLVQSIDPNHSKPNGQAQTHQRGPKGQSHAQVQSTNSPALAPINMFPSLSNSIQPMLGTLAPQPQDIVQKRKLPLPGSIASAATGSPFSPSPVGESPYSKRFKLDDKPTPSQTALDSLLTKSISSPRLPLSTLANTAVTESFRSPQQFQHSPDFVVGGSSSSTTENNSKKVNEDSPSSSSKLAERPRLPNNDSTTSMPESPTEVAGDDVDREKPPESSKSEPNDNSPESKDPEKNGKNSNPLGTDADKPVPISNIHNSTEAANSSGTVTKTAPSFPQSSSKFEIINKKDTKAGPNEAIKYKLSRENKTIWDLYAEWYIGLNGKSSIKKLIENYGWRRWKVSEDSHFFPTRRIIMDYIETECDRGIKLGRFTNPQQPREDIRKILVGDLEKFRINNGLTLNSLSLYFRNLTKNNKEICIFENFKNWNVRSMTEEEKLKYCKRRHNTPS
# PROTOCOL: PBM E-score (8-mer binding enrichment) (E-score (-0.5 to 0.5)); higher = stronger / more preferred TF binding
# TEST_CONTEXT: protein concentration: 100 nM; construct: GST-full length
Whole data set: some 33,000 sequences, median “E-score (-0.5 to 0.5)” near -0.011, cut for the highest 2% near 0.28. The full list was thinned out, with the highest values kept by preference.
Attribute: PBM E-score
PROPERTY_LABEL: PBM E-score

   biopolymer_sequence  result
0             GATGCCGC   0.267
1             AACATCCC  -0.109
2             AGCTTCAT  0.0447
3             ACGCAGCG   0.244
4             CATCTTGG  -0.102
5             GGCATCCC     0.4
6             GCGCAGCC   0.292
7             ATTTTTTG   0.228
